src = patent CN109734806A

- system-tested: T1, 人TIGIT (膜表达人TIGIT稳转细胞株DG44-TIGIT) (human, UniProt Q495A1 22-244)
- T1 construct: whole, on cells; also called 细胞表面的TIGIT蛋白; huTIGIT
- T1 sequence (looked up): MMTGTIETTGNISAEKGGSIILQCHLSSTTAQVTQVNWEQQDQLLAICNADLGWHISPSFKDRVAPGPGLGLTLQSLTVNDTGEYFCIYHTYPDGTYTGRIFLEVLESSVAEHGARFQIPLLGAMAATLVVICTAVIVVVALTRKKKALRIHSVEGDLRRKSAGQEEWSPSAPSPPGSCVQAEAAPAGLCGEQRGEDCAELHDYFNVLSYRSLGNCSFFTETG
- test-protocol: FACS binding to DG44-TIGIT cells
result-type: EC50

The measured EC50 associated with 5TB10 (antibody, V domains shown, also called 全人源抗人TIGIT单抗5TB10) VH: DVQLQESGPGLVKPSETLSLTCTVSGDSVSDAGVGWNWIRQPPGKGLEWIGTIVPRRGITTYNPSLKSRVTISVDTSKNQFSLKLSSVTAADTSVYYCARVTTAGFDYWGQGTLVTVSS VL: DIVLTQSPATLSLSPGERATLSCRASQDVKILLNWYQQKPGQAPRLLIYWTSDRATGVPTRFSGSGSGTDFTLTISSLEPEDFAVYYCQQHLDRLPYTFGQGTKLEIKR reads 0.0872 µg/mL
